target: SMO (Mus musculus); construct: endogenous in cells; host or cells: C3H10T1/2 (ATCC #CCL-226); test: Smoothened (SMO)/Sonic Hedgehog (SHh) Transient Transcriptional Activation Assay (Gli-luciferase reporter in C3H10T1/2 cells); assay type: cell-based, murine; details: C3H 10T1/2, 2 μM test compound, SHh 250 ng/ml, 20 hrs, read-out: SMO CELL % INHIBITION @ 2 μM
Sequence (P56726 33-793): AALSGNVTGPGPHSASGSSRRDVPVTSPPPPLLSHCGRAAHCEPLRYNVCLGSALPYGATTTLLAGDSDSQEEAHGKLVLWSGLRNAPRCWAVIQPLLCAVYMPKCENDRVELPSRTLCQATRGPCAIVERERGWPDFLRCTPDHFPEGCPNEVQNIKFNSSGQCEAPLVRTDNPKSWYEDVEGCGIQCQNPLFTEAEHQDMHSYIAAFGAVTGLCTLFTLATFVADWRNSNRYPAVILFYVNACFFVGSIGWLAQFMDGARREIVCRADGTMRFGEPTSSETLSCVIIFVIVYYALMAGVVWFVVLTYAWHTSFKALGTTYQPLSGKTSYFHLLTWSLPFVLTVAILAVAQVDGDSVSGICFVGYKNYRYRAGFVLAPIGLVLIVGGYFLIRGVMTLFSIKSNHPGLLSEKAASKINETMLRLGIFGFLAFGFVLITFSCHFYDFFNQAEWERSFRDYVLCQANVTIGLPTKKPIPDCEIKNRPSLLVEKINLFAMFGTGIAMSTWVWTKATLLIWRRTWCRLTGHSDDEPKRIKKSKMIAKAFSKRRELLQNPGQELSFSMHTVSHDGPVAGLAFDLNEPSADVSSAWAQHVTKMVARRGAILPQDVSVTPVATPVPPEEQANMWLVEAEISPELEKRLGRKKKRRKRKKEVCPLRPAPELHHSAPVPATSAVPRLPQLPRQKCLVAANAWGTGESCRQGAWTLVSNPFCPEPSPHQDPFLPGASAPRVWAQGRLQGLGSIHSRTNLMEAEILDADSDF
Counter-ions that a name gives are not always drawn.
PROPERTY_LABEL: inhibition at 2 µM (%)
Write the number in % without appending the unit.

# inhibition at 2 µM of CN1C(=O)CCc2cc(C(=O)N[C@@H]3CCC[C@H](c4nc5cc(C(F)(F)F)ccc5[nH]4)C3)ccc21 = 111

# inhibition at 2 µM of O=C(NC1CCCC(c2nc3ccccc3[nH]2)C1)c1c[nH]c(=O)[nH]c1=O (stereo not drawn) = 116

# inhibition at 2 µM of CN1c2ccccc2OCC1CC(=O)NC1CCCC(c2nc3ccccc3[nH]2)C1 (stereo not drawn) = 96

# inhibition at 2 µM of N#CCC(=O)NC1CCCC(c2nc3ccccc3[nH]2)C1 (stereo not drawn) = 93

# inhibition at 2 µM of Cc1cc(C)n(CCC(=O)NC2CCCC(c3nc4ccccc4[nH]3)C2)n1 (stereo not drawn) = 70

# inhibition at 2 µM of COCOc1ccc(C(=O)NC2CCCC(c3nc4ccccc4[nH]3)C2)cc1 (stereo not drawn) = 93

# inhibition at 2 µM of CN(C)CCNc1ccc(C(=O)N[C@@H]2CCC[C@H](c3nc4cc(C(F)(F)F)ccc4[nH]3)C2)cn1 [Example 293, HCl] = 106

# inhibition at 2 µM of Cc1cccc2nc(C3CCCC(NC(=O)c4ccc5c(c4)OCCO5)C3)[nH]c12 (stereo not drawn) [Example 79, HCl] = 102

# inhibition at 2 µM of O=C(Nc1ccc(Cl)c(Cl)c1)N[C@@H]1CCC[C@H](c2nc3ccccc3[nH]2)C1 = 111

# inhibition at 2 µM of O=C(Cn1ccc2ccccc2c1=O)NC1CCCC(c2nc3ccccc3[nH]2)C1 (stereo not drawn) = 57

# inhibition at 2 µM of CCOC(=O)CCCCC(=O)NC1CCCC(c2nc3ccccc3[nH]2)C1 (stereo not drawn) = 55

# inhibition at 2 µM of COc1cc(OC)cc(C(=O)NC23CCCC(c4nc5ccccc5[nH]4)(C2)C3)c1 = 81

# inhibition at 2 µM of Cc1[nH]c2ccc(C(=O)N[C@@H]3CCC[C@H](c4nc5ccccc5[nH]4)C3)cc2c1C = 109

# inhibition at 2 µM of O=C(N[C@@H]1CCC[C@H](c2nc3ccccc3[nH]2)C1)c1ccc2c(c1)OCO2 = 59

# inhibition at 2 µM of N#Cc1cccc(NC(=O)N[C@@H]2CCC[C@H](c3nc4ccccc4[nH]3)C2)c1 = 103

# inhibition at 2 µM of O=C(CCC1CCCC1)NC1CCCC(c2nc3ccccc3[nH]2)C1 (stereo not drawn) [Example 54, HCl] = 67

# inhibition at 2 µM of CC(=O)c1ccc(OCC(=O)NC2CCCC(c3nc4ccccc4[nH]3)C2)cc1 (stereo not drawn) = 52

# inhibition at 2 µM of O=C(NC1CCCC(c2nc3ccccc3[nH]2)C1)c1cccnc1 (stereo not drawn) [Example 53, HCl] = 96

# inhibition at 2 µM of O=C(NC1CCCC(c2nc3ccccc3[nH]2)C1)c1ccc(-c2cnco2)cc1 (stereo not drawn) = 72

# inhibition at 2 µM of COc1ccc2cc(C(=O)NC3CCCC(c4nc5ccccc5[nH]4)C3)n(C)c2c1 (stereo not drawn) = 83

# inhibition at 2 µM of COc1ccc2oc(C(=O)N[C@@H]3CCC[C@H](c4nc5ccccc5[nH]4)C3)cc2c1 = 61

# inhibition at 2 µM of O=C(N[C@@H]1CCC[C@H](c2nc3ccccc3[nH]2)C1)c1cc2ccc(Cl)cc2[nH]1 = 88

# inhibition at 2 µM of COc1cc(OC)cc(C(=O)NC2CCCC(c3nc4ccc(OC)cc4[nH]3)C2)c1 (stereo not drawn) = 105

# inhibition at 2 µM of COc1ccc2[nH]c([C@@H]3CCC[C@H](NC(=O)c4ccc5c(c4)OCCO5)C3)nc2c1 [Example 239, HCl] = 23

# inhibition at 2 µM of O=C(N[C@@H]1CCC[C@H](c2nc3cc(C(F)(F)F)ccc3[nH]2)C1)c1ccc2c(c1)CCNC2 [Example 287, HCl] = 107

# inhibition at 2 µM of O=C1COc2ccc(C(=O)N[C@@H]3CCC[C@H](c4nc5cc(Cl)ccc5[nH]4)C3)cc2N1 = 105

# inhibition at 2 µM of O=C(Cn1ncc2ccccc21)NC1CCCC(c2nc3ccccc3[nH]2)C1 (stereo not drawn) = 20

# inhibition at 2 µM of COc1ccc2cc(C(=O)N[C@@H]3CCC[C@H](c4nc5ccccc5[nH]4)C3)[nH]c2c1 = 89

# inhibition at 2 µM of N#Cc1ccc(NC(=O)NC23CCCC(c4nc5ccccc5[nH]4)(C2)C3)cc1 [Example 256, HCl] = 94

# inhibition at 2 µM of COC(=O)CCCC(=O)NC1CCCC(c2nc3ccccc3[nH]2)C1 (stereo not drawn) = 94

# inhibition at 2 µM of Cc1ccc(C(=O)NC2CCCC(c3nc4ccccc4[nH]3)C2)c(Cl)n1 (stereo not drawn) = 62

# inhibition at 2 µM of CN(C)c1ccc2nc(C3CCCC(NC(=O)c4ccc5c(c4)OCCO5)C3)[nH]c2c1 (stereo not drawn) [Example 77, HCl] = 102

# inhibition at 2 µM of O=C(C[C@H]1C[C@H]2C=C[C@@H]1C2)NC1CCCC(c2nc3ccccc3[nH]2)C1 (stereo partly drawn) = 103
